# Test system: PYK2;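 further: KINOMEscan kinase panel screen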
# Construct: gene PTK2B
# Condition Info: concentration: 1 μM, replicates: in singlicate; n = 1
Property Measured: %Inh (%)
One number for each entry, in %.

Below are worked cases with known answers.
{"Structure As Smiles": "COC(=O)c1c(-c2ccccc2)c2cc(OC)ccc2c(=O)n1Cc1ccccc1", "Observed Result": 6}
{"Structure As Smiles": "CS(=O)(=O)c1ccc(-c2nc3n(c2-c2ccncc2)CCC3)cc1", "Observed Result": 0}
{"Structure As Smiles": "O=c1cc(N2CCOCC2)nc2n(Cc3cccc(Cl)c3Cl)ccn12", "Observed Result": 0}

Please report %Inh for every entry that follows.
1. COc1cc2ncnc(Nc3ccc4nc(-c5ccccc5)[nH]c4c3)c2cc1OC.Cl
2. O=C(O)COc1ncnc2cc(-c3ccc4[nH]ncc4c3)sc12
3. COc1ccc(C2=C(Nc3cccc(C(=O)O)c3)C(=O)NC2=O)cc1
4. Nc1ncnc2[nH]c(-c3ccccc3)nc12
5. CCn1c(-c2cccnc2O)nc2cnccc21
6. O=C(Nc1ccccc1)Nc1cccc(Oc2ccc3nccn3n2)c1
7. Cl.Oc1ccc(-c2nc(-c3ccccc3)[nH]c2-c2ccncc2)cc1

RESULT:
[7, 0, 17, 0, 0, 60, 0]
